I'd be grateful if you could share measured Kp at 3 h for these entries.
Assay: Ratio of drug concentration in brain to plasma in C57BL/6 mouse at 30 mg/kg, po measured at 3 hrs
Format: ADME, organism-based
Conditions: read-out: BPR
Give only the figure.

Please report the recorded Kp at 3 h for C[C@@H]1COCCN1c1cc(N2CCOC[C@@H]2C)nc2[nH]c(-c3cscn3)nc12 .
0.75

How about this compound: C[C@@H]1COCCN1c1cc(N2CCOC[C@@H]2C)nc2[nH]c(-c3ccccn3)nc12
0.65

###

Test: Drug concentration in C57BL/6 mouse brain at 3 mg/kg, po measured after 8 hrs
Type: ADME, organism-based
Conditions: read-out: Ct
observed_property: concentration at 8 h (nM)
Expressed in nM, but write only the number.

Given C[C@@H]1COCCN1c1cc(N2CCOC[C@@H]2C)nc2[nH]c(-c3cscn3)nc12 , state its recorded concentration at 8 h.
341

###

Test: AUC(0 to t) in Beagle dog at 0.3 mg/kg, iv measured upto 24 hrs by LC/MS/MS analysis
Type: ADME, organism-based, Canis lupus familiaris
Design: time < 24 hrs, dose 0.3 mg/kg, route iv
Conditions: in vivo
observed_property: AUC(0-t) at 24 h (µM·h)
All answers are understood in µM·h, so give the number only.

Any idea what its AUC(0-t) at 24 h is? The molecule is C[C@@H]1COCCN1c1cc(N2CCOC[C@@H]2C)nc2[nH]c(-c3ccccn3)nc12
0.147

###

Experiment: AUC(0 to t) in cynomolgus monkey at 1 mg/kg, po measured upto 24 hrs by LC/MS/MS analysis
Type: ADME, organism-based, Macaca fascicularis
Design: time < 24 hrs, dose 1 mg/kg, route po
Conditions: in vivo
observed_property: AUC(0-t) at 24 h (µM·h)
Give a bare numeral; the unit µM·h is implied.

Return reported AUC(0-t) at 24 h; argument: C[C@@H]1COCCN1c1cc(N2CCOC[C@@H]2C)nc2[nH]c(-c3cscn3)nc12
3.75

###

Experiment: Drug concentration in C57BL/6 mouse plasma at 10 mg/kg, po measured after 24 hrs
Type: ADME, organism-based
observed_property: concentration at 24 h (nM)
Field: numeric (nM). Do not append units.

What value of concentration at 24 h has been reported for the following compound? C[C@@H]1COCCN1c1cc(N2CCOC[C@@H]2C)nc2[nH]c(-c3cscn3)nc12
211

Param item: C[C@@H]1COCCN1c1cc(N2CCOC[C@@H]2C)nc2[nH]c(-c3ccccn3)nc12
4

###

Molecular target: Cytochrome P450 3A4 (Homo sapiens)
Sequence (P08684 whole entry): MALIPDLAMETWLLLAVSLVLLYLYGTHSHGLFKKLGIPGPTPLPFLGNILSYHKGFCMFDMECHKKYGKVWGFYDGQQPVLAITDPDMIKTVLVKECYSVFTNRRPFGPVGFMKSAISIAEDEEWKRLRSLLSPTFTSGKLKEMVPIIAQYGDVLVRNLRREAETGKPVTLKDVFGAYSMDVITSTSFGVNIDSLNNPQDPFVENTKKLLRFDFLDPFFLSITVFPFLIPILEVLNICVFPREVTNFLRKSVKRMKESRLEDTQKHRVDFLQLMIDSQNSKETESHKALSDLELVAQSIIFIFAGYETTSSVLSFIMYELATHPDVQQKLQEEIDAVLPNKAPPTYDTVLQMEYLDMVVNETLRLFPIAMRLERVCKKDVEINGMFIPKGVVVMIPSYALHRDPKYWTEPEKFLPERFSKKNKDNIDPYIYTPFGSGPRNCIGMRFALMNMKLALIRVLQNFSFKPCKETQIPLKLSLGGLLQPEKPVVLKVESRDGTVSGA
Assay: Inhibition of CYP3A4 (unknown origin) assessed as Kobs
Format: ADME
observed_property: Kobs (min⁻¹)
The figure you give is taken to be in min⁻¹; do not add the unit.

For the compound C[C@@H]1COCCN1c1cc(N2CCOC[C@@H]2C)nc2[nH]c(-c3cc(O)ccc3F)nc12 , what Kobs is on record?
0.004

Queued: C[C@@H]1COCCN1c1nc(N2CCOC[C@@H]2C)nc2sc(-c3cc[nH]n3)nc12
0.006

Also need C[C@@H]1COCCN1c1cc(N2CCOC[C@@H]2C)nc2[nH]c(-c3nccs3)nc12 , thanks.
0.021

Thanks! And C[C@@H]1COCCN1c1cc(N2CCOC[C@@H]2C)nc2[nH]c(-c3cscn3)nc12 ?
0.021

Here is the next compound: C[C@@H]1COCCN1c1cc(N2CCOC[C@@H]2C)nc2[nH]c(-c3ccccn3)nc12
0.032

Param item: C[C@@H]1COCCN1c1cc(N2CCOC[C@@H]2C)nc2[nH]c(-c3cc[nH]n3)nc12
0.004

Same again, this time with C[C@@H]1COCCN1c1cc(N2C3CCC2COC3)nc2[nH]c(-c3ccccn3)nc12
0.036
